Where do these numbers come from? They come from ChEMBL document CHEMBL1136566.

- TARGET UNDER TEST: Delta-type opioid receptor (Rattus norvegicus, UniProt P33533)
- Sequence (P33533 whole entry): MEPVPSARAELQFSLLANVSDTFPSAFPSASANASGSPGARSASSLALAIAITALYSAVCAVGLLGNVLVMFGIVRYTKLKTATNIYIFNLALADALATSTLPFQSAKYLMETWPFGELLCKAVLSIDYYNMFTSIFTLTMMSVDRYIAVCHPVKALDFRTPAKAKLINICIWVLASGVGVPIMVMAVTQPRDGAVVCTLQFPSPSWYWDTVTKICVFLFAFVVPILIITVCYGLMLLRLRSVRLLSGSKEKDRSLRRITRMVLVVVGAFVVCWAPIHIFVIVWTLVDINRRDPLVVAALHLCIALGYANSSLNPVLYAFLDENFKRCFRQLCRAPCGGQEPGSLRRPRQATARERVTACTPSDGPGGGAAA
- ASSAY TEXT: Binding affinity to delta opioid receptor was measured using [3H]DADLE
The following compounds are shown together with reported Ki values.
Your answer is read as nM, so omit the unit and give the number.

// known answers, use as guide
{"SMILES TEXT": "N=C(N)Nc1cnc2c(c1)C[C@@]1(O)[C@H]3Cc4ccc(O)c5c4[C@@]1(CCN3CC1CC1)[C@H]2O5", "Ki / nM": 18.7}
{"SMILES TEXT": "O=[N+]([O-])c1cnc2c(c1)C[C@@]1(O)[C@H]3Cc4ccc(O)c5c4[C@@]1(CCN3CC1CC1)[C@H]2O5", "Ki / nM": 5.5}
{"SMILES TEXT": "Oc1ccc2c3c1O[C@H]1c4ncc(CNc5ccccc5)cc4C[C@@]4(O)[C@@H](C2)N(CC2CC2)CC[C@]314", "Ki / nM": 1.8}
{"SMILES TEXT": "Oc1ccc2c3c1O[C@H]1c4ncc(Br)cc4C[C@@]4(O)[C@@H](C2)N(CC2CC2)CC[C@]314", "Ki / nM": 1.2}
{"SMILES TEXT": "Oc1ccc2c3c1O[C@H]1c4ncc(-n5cccc5)cc4C[C@@]4(O)[C@@H](C2)N(CC2CC2)CC[C@]314", "Ki / nM": 0.64}

**Query** Give the measured Ki of Oc1ccc2c3c1O[C@H]1c4ncc(NCc5ccccc5)cc4C[C@@]4(O)[C@@H](C2)N(CC2CC2)CC[C@]314 .
**Result** 1.3

**Query** Find the recorded Ki belonging to N#Cc1cnc2c(c1)C[C@@]1(O)[C@H]3Cc4ccc(O)c5c4[C@@]1(CCN3CC1CC1)[C@H]2O5 and report it.
**Result** 4.5

###

- TARGET UNDER TEST: Kappa-type opioid receptor (Cavia porcellus)
- Sequence (P41144 whole entry): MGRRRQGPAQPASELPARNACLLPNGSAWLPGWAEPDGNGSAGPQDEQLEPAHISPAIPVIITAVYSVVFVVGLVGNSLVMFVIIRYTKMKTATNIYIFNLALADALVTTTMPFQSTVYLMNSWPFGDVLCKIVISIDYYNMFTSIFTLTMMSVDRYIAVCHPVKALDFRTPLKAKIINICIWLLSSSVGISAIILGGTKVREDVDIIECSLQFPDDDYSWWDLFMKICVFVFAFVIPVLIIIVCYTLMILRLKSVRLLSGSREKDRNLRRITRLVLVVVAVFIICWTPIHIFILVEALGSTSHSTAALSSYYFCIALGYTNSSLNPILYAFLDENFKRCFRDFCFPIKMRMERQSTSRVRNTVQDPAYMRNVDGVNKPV
- ASSAY TEXT: Antagonist activity on agonist stimulated [35S]GTP-gamma-S, binding in guinea pig caudate membranes (10 uM U69,593 as the agonist ligand for kappa-receptor)
- Assay type: functional, cell membranes
MEASUREMENT NAME: pKi
Bear in mind: pKi is minus log10 of a mol/L concentration; give just that figure.

Answered examples (3):
{"SMILES TEXT": "N=C(N)Nc1cnc2c(c1)C[C@@]1(O)[C@H]3Cc4ccc(O)c5c4[C@@]1(CCN3CC1CC1)[C@H]2O5", "pKi": 9.00}
{"SMILES TEXT": "Oc1ccc2c3c1O[C@H]1c4[nH]c5ccccc5c4C[C@@]4(O)[C@@H](C2)N(CC2CC2)CC[C@]314", "pKi": 8.22}
{"SMILES TEXT": "Oc1ccc2c3c1O[C@H]1c4ncc(-n5cccc5)cc4C[C@@]4(O)[C@@H](C2)N(CC2CC2)CC[C@]314", "pKi": 8.06}

# input for lookup
**Query** What value of pKi has been reported for the following molecule? Oc1ccc2c3c1O[C@H]1c4[nH]c5c(c4C[C@@]4(O)[C@@H](C2)N(CC2CC2)CC[C@]314)C[C@@]1(O)[C@H]2Cc3ccc(O)c4c3[C@@]1(CCN2CC1CC1)[C@H]5O4
**Result** 9.92

###

- TARGET UNDER TEST: Delta-type opioid receptor (Mus musculus)
- ASSAY TEXT: Antagonist potency against delta opioid receptor was measured in mouse vas-deferens using DPDPE
- Type: functional
MEASUREMENT NAME: Ke (nM)
Just the number in nM, nothing appended.

{"MOLECULE": "Oc1ccc2c3c1O[C@H]1c4[nH]c5ccccc5c4C[C@@]4(O)[C@@H](C2)N(CC2CC2)CC[C@]314 [NALTRINDOLE]", "NUMERIC RESULT": 0.53}

**Query** Requested field: Ke. Item: Oc1ccc2c3c1O[C@H]1c4ncc(CNc5ccccc5)cc4C[C@@]4(O)[C@@H](C2)N(CC2CC2)CC[C@]314
**Result** 6.5

###

- ASSAY TEXT: Selectivity ratio was measured between kappa and delta opioid receptor
Readings of Selectivity ratio for the listed molecules
// return just the number, without any unit appended

Some solved cases for reference:
{"SMILES TEXT": "O=[N+]([O-])c1cnc2c(c1)C[C@@]1(O)[C@H]3Cc4ccc(O)c5c4[C@@]1(CCN3CC1CC1)[C@H]2O5", "Selectivity ratio": 17}
{"SMILES TEXT": "Nc1cnc2c(c1)C[C@@]1(O)[C@H]3Cc4ccc(O)c5c4[C@@]1(CCN3CC1CC1)[C@H]2O5", "Selectivity ratio": 1.5}
{"SMILES TEXT": "Oc1ccc2c3c1O[C@H]1c4ncccc4C[C@@]4(O)[C@@H](C2)N(CC2CC2)CC[C@]314", "Selectivity ratio": 11}

Then this molecule:
**Query** Which measured Selectivity ratio value corresponds to N=C(N)Nc1cnc2c(c1)C[C@@]1(O)[C@H]3Cc4ccc(O)c5c4[C@@]1(CCN3CC1CC1)[C@H]2O5 ?
**Result** 0.037

###

- TARGET UNDER TEST: Opioid receptors; mu & delta (Rattus norvegicus) (UniProt P33533+P33535)
- Sequence (P33533 whole entry, looked up): as the sequence (P33533 whole entry) above
- Sequence (P33535 whole entry, looked up): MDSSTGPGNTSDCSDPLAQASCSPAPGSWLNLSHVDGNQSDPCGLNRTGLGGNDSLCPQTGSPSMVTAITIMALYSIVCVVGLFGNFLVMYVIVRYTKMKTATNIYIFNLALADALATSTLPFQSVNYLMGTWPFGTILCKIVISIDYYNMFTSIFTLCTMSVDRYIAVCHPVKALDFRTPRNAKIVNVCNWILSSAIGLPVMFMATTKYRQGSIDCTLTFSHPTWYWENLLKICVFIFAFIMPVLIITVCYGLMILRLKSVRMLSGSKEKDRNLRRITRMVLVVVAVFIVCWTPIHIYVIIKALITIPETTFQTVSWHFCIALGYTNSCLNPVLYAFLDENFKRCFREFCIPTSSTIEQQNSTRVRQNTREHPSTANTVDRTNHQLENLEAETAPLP
- ASSAY TEXT: Selectivity ratio was measured between mu and delta opioid receptor
- Assay type: protein assay
Listing of entries alongside the reported Selectivity ratio.
Provide a numeric answer; units are not to be included.

{"SMILES TEXT": "N#Cc1cnc2c(c1)C[C@@]1(O)[C@H]3Cc4ccc(O)c5c4[C@@]1(CCN3CC1CC1)[C@H]2O5", "TARGET UNDER TEST": "Opioid receptors; mu & delta (Rattus norvegicus) (UniProt P33533+P33535)", "NUMERIC RESULT": 3.6}
{"SMILES TEXT": "Oc1ccc2c3c1O[C@H]1c4ncc(Br)cc4C[C@@]4(O)[C@@H](C2)N(CC2CC2)CC[C@]314", "TARGET UNDER TEST": "Opioid receptors; mu & delta (Rattus norvegicus) (UniProt P33533+P33535)", "NUMERIC RESULT": 12.9}
{"SMILES TEXT": "N=C(N)Nc1cnc2c(c1)C[C@@]1(O)[C@H]3Cc4ccc(O)c5c4[C@@]1(CCN3CC1CC1)[C@H]2O5", "TARGET UNDER TEST": "Opioid receptors; mu & delta (Rattus norvegicus) (UniProt P33533+P33535)", "NUMERIC RESULT": 1.4}
{"SMILES TEXT": "Oc1ccc2c3c1O[C@H]1c4ncc(-n5cccc5)cc4C[C@@]4(O)[C@@H](C2)N(CC2CC2)CC[C@]314", "TARGET UNDER TEST": "Opioid receptors; mu & delta (Rattus norvegicus) (UniProt P33533+P33535)", "NUMERIC RESULT": 30}

**Query** For Nc1cnc2c(c1)C[C@@]1(O)[C@H]3Cc4ccc(O)c5c4[C@@]1(CCN3CC1CC1)[C@H]2O5 , what is its reported Selectivity ratio?
**Result** 1.6

**Query** What value of Selectivity ratio has been reported for the following compound? O=[N+]([O-])c1cnc2c(c1)C[C@@]1(O)[C@H]3Cc4ccc(O)c5c4[C@@]1(CCN3CC1CC1)[C@H]2O5
**Result** 3.2

**Query** Query (compound): Oc1ccc2c3c1O[C@H]1c4ncccc4C[C@@]4(O)[C@@H](C2)N(CC2CC2)CC[C@]314 ; field requested: Selectivity ratio
**Result** 1.9

**Query** For Oc1ccc2c3c1O[C@H]1c4ncc(NCc5ccccc5)cc4C[C@@]4(O)[C@@H](C2)N(CC2CC2)CC[C@]314 , what is its reported Selectivity ratio?
**Result** 11.5

**Query** Tell me the measured Selectivity ratio of Oc1ccc2c3c1O[C@H]1c4ncc(CNc5ccccc5)cc4C[C@@]4(O)[C@@H](C2)N(CC2CC2)CC[C@]314 , please.
**Result** 3.3

###

- TARGET UNDER TEST: Mu-type opioid receptor (Cavia porcellus, UniProt P97266)
- Sequence (P97266 whole entry): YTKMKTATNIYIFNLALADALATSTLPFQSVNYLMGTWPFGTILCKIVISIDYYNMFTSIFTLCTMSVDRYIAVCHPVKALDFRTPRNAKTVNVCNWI
- ASSAY TEXT: Antagonist activity on agonist stimulated [35S]GTP-gamma-S, binding in guinea pig caudate membranes (10 uM DAMGO as the agonist ligand for Mu-receptor)
- Assay type: functional, cell membranes
MEASUREMENT NAME: Ki (nM)
State just the number; it will be interpreted in nM.

{"SMILES TEXT": "Oc1ccc2c3c1O[C@H]1c4ncc(-n5cccc5)cc4C[C@@]4(O)[C@@H](C2)N(CC2CC2)CC[C@]314", "Ki (nM)": 4.2}

Shifting focus to the molecule that follows.
**Query** Any idea what its Ki is? The molecule is N=C(N)Nc1cnc2c(c1)C[C@@]1(O)[C@H]3Cc4ccc(O)c5c4[C@@]1(CCN3CC1CC1)[C@H]2O5
**Result** 6.1

###

- ASSAY TEXT: Selectivity ratio was measured between kappa and delta opioid receptor
Documented Selectivity ratio across a set of compounds
Would you mind answering with just the numeric figure?

{"SMILES TEXT": "Oc1ccc2c3c1O[C@H]1c4ncc(Br)cc4C[C@@]4(O)[C@@H](C2)N(CC2CC2)CC[C@]314", "NUMERIC RESULT": 46}
{"SMILES TEXT": "Oc1ccc2c3c1O[C@H]1c4ncc(CNc5ccccc5)cc4C[C@@]4(O)[C@@H](C2)N(CC2CC2)CC[C@]314", "NUMERIC RESULT": 10.6}
{"SMILES TEXT": "N#Cc1cnc2c(c1)C[C@@]1(O)[C@H]3Cc4ccc(O)c5c4[C@@]1(CCN3CC1CC1)[C@H]2O5", "NUMERIC RESULT": 7.5}
{"SMILES TEXT": "Oc1ccc2c3c1O[C@H]1c4ncc(-n5cccc5)cc4C[C@@]4(O)[C@@H](C2)N(CC2CC2)CC[C@]314", "NUMERIC RESULT": 19}

Turning to the following compound.
**Query** Fill in the blank: the reported Selectivity ratio of Oc1ccc2c3c1O[C@H]1c4ncc(NCc5ccccc5)cc4C[C@@]4(O)[C@@H](C2)N(CC2CC2)CC[C@]314 is ____.
**Result** 5.2
